melting point: recorded values

These solved cases illustrate the format of a correct answer.
CCC1N=C(c2ccccc2Cl)c2cc(CCC(=O)OC)sc2NC1=S (configuration not stated) : 173 to 176 °C
CCOc1cccc(C(S)C(=O)O)c1 (configuration not stated) : 105 to 107 °C
CC1(C)CCC(C)(C)c2cc(Br)c(O)cc21 : 90 to 94 °C
CC(C#CCOc1ccccc1)N(O)C(N)=O (configuration not stated) : 75 to 77 °C
Cc1ncn(C)c1-c1nc(C2CC2)no1 : 88 °C
CCCNC(=O)Nc1ccc(C(=O)OC)c(NC(=O)NC(C)C)c1 : 94 to 95 °C
CCn1cc(-c2ccc([C@H](C)N3CC[C@](CC(C)(C)O)(c4ccccc4)OC3=O)cc2)ccc1=O : 167 to 168 °C
CCCCCCCNC(=O)N(C)c1cccc(-c2ccc(CCC(=O)O)cc2)n1 : 108 °C

Request: Bench note: what melting point did CCCCCCCCCCCCc1c[nH]c(C=O)c1 show?
Result: 64 to 65 °C

Request: For the compound COC(=O)c1ccc(NC(=O)CCc2cnoc2-c2ccccc2)cc1 , what melting point is on record?
Result: 111 to 112 °C

Request: Which melting point is listed for CN(C)C(=O)Cn1c(-c2ccc([N+](=O)[O-])cc2)nc2cccnc21 ?
Result: 204 to 207 °C

Request: Quick one: melting point for N#CC(NC(=O)c1cccn2cc(-c3ccccc3)nc12)c1ccco1 (configuration not stated) ?
Result: 197 to 199 °C

Request: What measured melting point goes with COc1cc(-n2c(=O)cc(C(F)(F)F)n(C)c2=O)c(F)cc1Cl ?
Result: 128 to 130 °C

Request: I'd like to know its melting point. The compound in question is O=C(Cc1c(-c2cccnc2)c2cc(CN3CCN(c4ccccc4)CC3)c(Cl)cc2oc1=O)Nc1ccc(F)cc1C(F)(F)F
Result: 202 to 205 °C

Request: State the recorded melting point for this entry: CCCNC(=O)N=c1ccn(-c2ccccc2)nc1
Result: 156 to 157 °C

Request: Which melting point value belongs to CNC(=S)c1cnn(-c2ccccc2)c1C#N ?
Result: 215 to 217 °C

Request: # melting point lookup, item O=C1NCCCc2cc(CCCl)sc21
Result: 156 to 158 °C

Request: What does the data say about its melting point? Entry: CCn1cc(C2CCC(=O)CC2)c2cc(C#N)ccc21
Result: 124 °C

###

Listed next: entries and their corresponding melting point.

Request: // returns reported melting point for input N#CC1c2ccccc2C=Cc2ccccc21
Result: 102 to 104 °C

Request: Name the reported melting point value associated with the compound Cc1cc2cc(CN3CCCCCC3)cnc2cc1NC(=O)c1ccc(-c2ccc(Cl)cc2)cc1
Result: 204 °C

Request: Fill blank: measured melting point of the compound CC(C)(Cl)c1ccc(-c2ccc(C(C)(C)Cl)cc2)cc1 is ____.
Result: 96 to 98 °C

Request: Suppose we examine the compound COc1cc(Cc2nnc(N[C@H]3CC[C@H](C(C)C)CC3)c3ccccc23)ccn1 ; what melting point value has been reported?
Result: 65 to 66 °C

Request: Request the reported melting point associated with Cn1c2ccc(Br)cc2c2cc(Br)cc([N+](=O)[O-])c21
Result: 221 °C

Request: # query: melting point of entry COc1cc2c(c3c1OC(C)(C)C3)C(c1cccc(C(=O)NC(C)(C)C(N)=O)c1)=NC(C)(C)C2
Result: 129 to 131 °C

Request: For OC(c1ccc(Cl)cc1Cl)C(Oc1ccc(Cl)cc1)n1ccnc1 (centres undefined) , what is its reported melting point?
Result: 108 to 110 °C

Request: Fill blank: measured melting point of the compound Nc1cc(C(=O)Nc2ccccc2)ccc1F is ____.
Result: 167 to 170 °C

Request: Fill in: melting point of CCCCCc1ccc(C(=O)Nc2ccc(-n3nc(C(F)(F)F)cc3C(F)(F)F)cc2)c(=O)o1 is ___
Result: 140 to 141 °C

###

Below, each entry is listed alongside its reported melting point.

A selection of reference data follows.
Cc1cc(C)c2nc(C3CC3)n(Cc3ncc(C4(C(=O)O)CC=CC4)cn3)c2n1 : 203 to 204 °C
Cc1cc(C2=NOC(c3cc(Cl)cc(Cl)c3)(C(F)(F)F)C2)ccc1C(=O)NC1CON(C)C1=O (stereo unspecified) : 87 °C

Request: Need melting point, item COc1cc(C=CC=O)ccc1OCc1csc(-c2ccccc2)n1
Result: 115 to 116 °C

Request: Suppose we examine the compound Oc1ccc(C2(c3ccc(O)cc3)c3ccccc3-c3ccccc32)cc1 ; what melting point value has been reported?
Result: 215 °C

Request: Give its melting point value. Item: Cc1cc(O)cc(C)c1N=Cc1ccccc1O
Result: 145 to 147 °C

###

Reported melting point values for the following molecules.

Cc1ccc(C2CC(C(F)(F)F)=NN2c2ccc(S(N)(=O)=O)cc2)cc1 (centres undefined) : 140 to 143 °C
CC(=O)C(=NO)C(N)=O : 96 to 97 °C
Cc1ccccc1C(=O)Nc1ccc(C(=O)N2CCCC(N(C)C)c3ccccc32)cc1O (centres undefined) : 202 °C

Next:
Request: // melting point lookup, key: CCCCC(COc1ccc(-c2cccc(CC#N)c2)cc1)N(O)C=O (centres undefined)
Result: 99 to 101 °C

###

Property: melting point; scope: individual molecules

// solved cases for melting point follow
CCc1nnc2cc(N3CCN(C)CC3)nc(CC)n12 : 128 to 131 °C
C(=C\c1nc(COc2ccc(CCCCCn3cncn3)cc2)co1)/c1ccccc1 : 103 to 104 °C

Request: Which melting point value belongs to CCn1cc(C(=O)O)c(=O)c2cc(F)c(N3CCC(CNC)C3)nc21 (stereo not given) ?
Result: 251 to 253 °C

Request: Report melting point for CCC(CCNC(=O)C(C#N)=Cc1ccc(O)c(O)c1)NC(=O)C(C#N)=Cc1ccc(O)c(O)c1 (stereo not given) please.
Result: 252 °C

Request: // query melting point value for entry COc1nc(C)c2c(c1C#N)CCCC2=O
Result: 128 °C

Request: Data request, read-out melting point, for CCCCOc1c(CNC(=O)OCC2c3ccccc3-c3ccccc32)n(CC(C)C)c(=O)c2ccc(-c3nc(C(=O)OCC)cs3)cc12
Result: 203 to 204 °C

Request: If you can, please state the reported melting point value of COc1ccc(-c2nc3n(c2-c2ccc(OC)cc2)C(F)C(F)(F)S3)cc1 (stereo not given) .
Result: 160 to 162 °C

###

QUANTITY_MEASURED: melting point

CC(C)(C)c1ccc(C(=O)n2c3cc(O)c(O)cc3c3ccc(O)c(O)c32)cc1 : 234 to 236 °C
CSc1sc2ccccc2c1C=O : 50 to 53 °C
COC(=O)C1=C(C)NC(=O)NC1c1cccc(N)c1 (stereo unspecified) : 222 to 234 °C
COc1cc([C@H]2CS[C@@H](c3cc(OC)c(OC)c([N+](=O)[O-])c3)S2)cc(OC)c1OC (relative stereo) : 133 to 134 °C

Request: // lookup melting point for CCOC(=O)c1cn(Cc2ccccc2)nc1OCc1ccc(OCc2nc(-c3ccco3)oc2C)c(OC)c1
Result: 117 to 118 °C

Request: Please report the recorded melting point for COC(=O)c1ccccc1S(=O)(=O)NC(=O)Nc1nc(OC)cc(OC)n1 .
Result: 185 to 190 °C

Request: Query (molecule): CN(Cc1ccccc1)C(=O)CCc1nc(-c2ccc(Cl)cc2)co1 ; field requested: melting point
Result: 99 to 100 °C

Request: Can you look up the measured melting point of CCCCCc1ccc(Oc2cccc(C=C3SC(=S)NC3=O)c2)cc1 for me?
Result: 125 to 127 °C

Request: Report melting point for COC(=O)Nc1nc2ccc(Sc3ccccc3)cn2c1CN1CCOCC1 please.
Result: 158 to 182 °C

###

melting point for assorted molecules

CSC1=NC=CC(NN)(SC)N1 (centres undefined) : 120 to 125 °C
COc1ccc2cc([C@H](C)C(=O)OC/C=C\CO)ccc2c1 : 69 to 71 °C
CCCS(=O)(=O)N1C[C@@H](C)C[C@H](Nc2ncccc2-c2cnc3[nH]ccc3n2)C1 : 178 to 180 °C

Request: I would be grateful if you could share the reported melting point for CN1Cc2cccnc2N(c2cccc(Cl)c2)C1=O .
Result: 139 to 140 °C

Request: Recorded melting point of CCCC1(C)CC(=O)c2ccc(OCc3ccccc3)c(C)c2O1 (centres undefined) , please.
Result: 45 °C

Request: Form field: reported melting point of CC(C)Cn1cnc2c(N)nc3c(c21)NCCC3
Result: 222 to 226 °C

Request: Sample Cc1cccc(N2CCN(c3ccc(=O)[nH]n3)CC2)c1 — what was its melting point?
Result: 210 °C

Request: Report melting point for CN1c2c(occ(CO)c2=O)-c2ccccc2S1(=O)=O please.
Result: 201 to 205 °C

Request: Using the record for C=C[C@@H]1O[C@](C#CC2CC2)(C(F)(F)F)c2c(ccc(F)c2F)NC1=O (relative stereo) , report its melting point.
Result: 171 to 172 °C

Request: What value of melting point has been recorded for this entry: CN(C(=O)Oc1ccc(Cl)c(C(C)(C)C)c1)c1cccc(Cl)c1
Result: 65 to 67 °C

Request: Can you look up the measured melting point of O=C(O)c1ccccc1Nc1cccc(/C=C/c2nc3ccccc3s2)c1 for me?
Result: 146 to 150 °C

Request: Please report the recorded melting point for COc1ccc2c(c1)C(=O)N(CCN(C)CCN1C(=O)c3cc(OC)ccc3C(C)(C)C1=O)C(=O)C2(C)C .
Result: 150 to 151 °C

Request: What does the data say about its melting point? Entry: O=C(C=Cc1ccc(Cl)cc1)C=Cc1ccc(Cl)cc1
Result: 187 to 189 °C

Request: melting point for COc1cc2nc(N)nc(-c3cccc(OC(F)(F)F)c3)c2cc1OC ?
Result: 233 to 235 °C
